- target: T1, GFP-9S library array, motif 4 ND N98I;D124E (synthetic construct, N98I;D124E)
- T1 chain: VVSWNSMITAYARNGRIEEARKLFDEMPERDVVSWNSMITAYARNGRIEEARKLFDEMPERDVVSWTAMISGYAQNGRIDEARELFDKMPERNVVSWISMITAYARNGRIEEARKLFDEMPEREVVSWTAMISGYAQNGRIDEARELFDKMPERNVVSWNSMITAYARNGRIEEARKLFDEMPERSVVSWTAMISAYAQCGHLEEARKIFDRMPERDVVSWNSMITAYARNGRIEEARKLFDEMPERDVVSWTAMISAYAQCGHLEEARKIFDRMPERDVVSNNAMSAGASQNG
- procedure.text: high-throughput RNA pulldown from lysate on Ni-NTA beads; HRP: 50 mM Tris pH 8, 150 mM NaCl, 1 mM beta-mercaptoethanol, 50 ug/ml BSA, 3 ug/ml yeast RNA, 0.5% heparin; ITC and FP: Tris pH 8, 200 mM KCl, 5% glycerol; MST: 50 mM Tris pH 8, 200 mM NaCl, 1 mM DTT, BSA, heparin, 0.05% Tween 20
- applied.conditions: tags: N-terminal His-eGFP; label: 5' IRDye 800CW
Below, each entry is listed with its recorded Kd.
Form entry: value (nM) — number only.

AUUAAACGUGA (ssRNA) [IR-rpoA-A]	48.6

Proceed to the following item.
The recorded Kd for AUUAUACGUGA (ssRNA) [IR-rpoA-U] is 43.1
